# GFP response, % of DMSO listing for each entry below
Assay: modulators of CIT2-GFP expression in yeast, confirmation, S. cerevisiae, GFP fusion, cherry picks, mother/daughter gates (AID 2274)
Conditions: S. cerevisiae CIT2-GFP strain, flow cytometry, 3 h; measured here: mother cell gate; at 10 µM; stronger effect = higher value
Value expressed in %; do not type the unit.

- Compound: "CCC(C)N1C(=O)/C(=C\\c2cnc(N(C)C)nc2)C(=O)NC1=S (stereo not drawn)"
  Recorded result: 90.2

Documented GFP response, % of DMSO of COc1ccc(N2C(=O)/C(=C/c3ccco3)C(=O)NC2=S)cc1 : 83.7

---

Target: Lethal factor (Bacillus anthracis)
Assay: Lethal factor protease inhibitors, Bacillus anthracis, multiplex microsphere cleavage assay, validation set (AID 588461)
Settings: flow cytometry, at 10 µM, stronger effect = higher value
Measured quantity: inhibition (%)
Give a bare numeral; the unit % is implied.

Solved entries (count: 3):
- Compound: "Nc1nc2c(nc(SCc3ccccc3Br)n2C2OC(CO)C(O)C2O)c(=O)[nH]1 (configuration not stated)"
  inhibition, %: -1.1
- Compound: "CCn1ccnc1CN1CCCC(C(=O)c2cc(F)ccc2OC)C1 (configuration not stated)"
  inhibition, %: -1.6
- Compound: "Cc1c(Cc2ccccc2)c(=O)oc2c(CN(C)C)c(O)c(Cl)cc12"
  inhibition, %: -7.6

Record COC(=O)c1cc(COc2ccc3ccc(=O)oc3c2)c(C)o1 . Reported inhibition: 1

Note to self: inhibition recorded for Cc1cc(C)c(NC(=O)NC(=O)C(Cl)(Cl)Cl)c(C)c1 was -3.8

The compound identified as C/C=C(/C(=C/C)c1ccc(O)cc1)c1ccc(O)cc1 registered its inhibition at 3.5

For this compound ( COc1ccc(/C=C2\CCn3c2nc2cc(C(=O)O)ccc2c3=O)cc1OC ), measured inhibition is 8

Quick note, inhibition for COC(=O)C1=C(C)NC(C)=C(C(=O)OCCN(C)Cc2ccccc2)C1c1cccc([N+](=O)[O-])c1 (configuration not stated) landed at -3.7

Memo: O=C(O)CCCNc1ccc(S(=O)(=O)Nc2ccccc2C(=O)O)cc1C(=O)O , reported inhibition: 10

get_value(item= CCOc1cc2c(cc1OCC)C(c1ccccc1)N(c1ccc(C(=O)O)cc1)C(=O)C2 (configuration not stated) , readout=inhibition) returns -5.2

// sample COc1ccc(OC(C)C(=O)Nc2ccc([N+](=O)[O-])cc2)cc1 (configuration not stated) , its inhibition was -0.5

Sure, the documented inhibition for C[C@H](NC(=O)OC(C)(C)C)C(=O)NCC1CCC(C(=O)O)CC1 (some centres not stated) is -1.1

---

Target: Beta-adrenergic receptor kinase 1 (Homo sapiens)
Experiment: GRK2 binders displacing RNA aptamer, biochemical, validation, human GRK2, bead flow cytometry (AID 488806)
Settings: bead-bound GRK2, FAM-aptamer displacement, at 10 µM, stronger effect = higher value
This section presents compounds with their documented aptamer binding inhibition values.
Please respond with the number in % and leave the unit unwritten.

In plain terms, NCC(O)c1ccc(O)cc1 (stereo not drawn) has a documented aptamer binding inhibition of 2

The reported aptamer binding inhibition of the compound CC(=O)C1=C(C)OC(N)=C(C(=O)OC(C)C)C12C(=O)Nc1ccccc12 (stereo not drawn) was 0

Just so you know, measured aptamer binding inhibition for O=c1[nH]c2ccccc2n1CCCN1CCC(n2c(=O)[nH]c3cc(Cl)ccc32)CC1 came out at 1

---

Test system: Botulinum neurotoxin type F light chain protease (Clostridium botulinum)
Test: Botulinum neurotoxin type F light chain protease inhibition, multiplex microsphere flow cytometry, validation set (AID 588459)
Details: multiplex microsphere protease substrate cleavage assay, at 10 µM, stronger effect = higher value
Activity calls are given as the source filed them. No rule for the calls is given here.
Measured quantity: inhibition

Some compounds with known inhibition results, for comparison:
- Chem smiles: "COc1ccc(-c2c(C)c3ccc(OCC(C)=O)cc3oc2=O)cc1"
  Recorded result: "-3.2% (inactive)"
- Chem smiles: "O=C(O)CCSCCC(=O)O"
  Recorded result: "1.3% (inactive)"
- Chem smiles: "CC(=O)[C@@]1(O)CC[C@H]2[C@@H]3C[C@H](C)C4=CC(=O)CC[C@]4(C)[C@H]3CC[C@@]21C"
  Recorded result: "-1.7% (inactive)"

response.value for O=C(CCCN1C(=O)/C(=C\c2cccs2)SC1=S)Nc1ccccn1 (field: inhibition) = 4% (inactive)

---

System: Botulinum neurotoxin type F light chain protease (Clostridium botulinum)
Test: Botulinum neurotoxin type F light chain protease inhibition, multiplex microsphere flow cytometry, validation set (AID 588459)
Details: multiplex microsphere protease substrate cleavage assay, at 10 µM, stronger effect = higher value
The reader will find reported inhibition values listed item by item below.
The reply should contain only the number, in %.

- Molecule: "CC(=O)N1CC23C=CC(CC2CC12CCCCCC2)O3 (stereo not given)"
  Target under test: "Botulinum neurotoxin type F light chain protease (Clostridium botulinum)"
  Recorded result: 1.3

Measured inhibition of CCc1ccc(/C=C2\SC(=S)N(CCC(=O)N3CCN(C)CC3)C2=O)cc1 : 4.9

In plain terms, Oc1ccccc1OCCOc1ccccc1OCCOc1ccccc1O has a documented inhibition of 6.5

---

Test system: Botulinum neurotoxin type F light chain protease (Clostridium botulinum)
Test: Botulinum neurotoxin type F light chain protease inhibition, multiplex microsphere flow cytometry, validation set (AID 588459)
Conditions: multiplex microsphere protease substrate cleavage assay, at 10 µM, stronger effect = higher value
Property: inhibition; scope: individual molecules
Give just the number in %; leave the unit off.

Below are worked cases with known answers.
- Molecule: "Cc1ncc(CN2CCC(CO)(CCc3ccccc3)CC2)s1"
  Measured quantity: "inhibition"
  Unit descriptor: "%"
  Recorded result: 1.3
- Molecule: "Cc1ccc(/C=N/NC(=O)C2(C)CC2(Br)Br)cc1 (configuration not stated)"
  Measured quantity: "inhibition"
  Unit descriptor: "%"
  Recorded result: 1.3
- Molecule: "Cc1ccc2c(c1)c1c3n2CCCNC3CCC1 (configuration not stated)"
  Measured quantity: "inhibition"
  Unit descriptor: "%"
  Recorded result: 9.2
- Molecule: "c1ccc(CNc2ncnc3nc[nH]c23)cc1"
  Measured quantity: "inhibition"
  Unit descriptor: "%"
  Recorded result: -7.5
- Molecule: "CC(O)Cn1cnc2c1c(=O)n(C)c(=O)n2C (configuration not stated)"
  Measured quantity: "inhibition"
  Unit descriptor: "%"
  Recorded result: -1.4

The molecule COC(=O)c1sccc1NC(=O)Nc1ccccc1F showed inhibition equal to -1.2

Briefly, inhibition measured for Nc1ncnc2c1ncn2C1OC(CO)C(O)C1O (configuration not stated) : 14.6

# inhibition (molecule: COc1ccc(CCN2CNc3c(c(=O)n(C)c(=O)n3C)C2)cc1OC ) is 22.1

---

Recorded inhibition values for a group of compounds are listed next.
Test system: Botulinum neurotoxin type F light chain protease (Clostridium botulinum)
Test: Botulinum neurotoxin type F light chain protease inhibition, multiplex microsphere flow cytometry, validation set (AID 588459)
Conditions: multiplex microsphere protease substrate cleavage assay, at 10 µM, stronger effect = higher value
Number only, in %; omit the unit.

- Compound: "CC(C)NNC(=O)c1ccncc1"
  Measured quantity: "inhibition"
  Recorded result: 1.2
- Compound: "COc1ccc(/C=C\\c2cc(OC)c(OC)cc2CC[N+](C)(C)C)cc1OC"
  Measured quantity: "inhibition"
  Recorded result: 2
- Compound: "COc1cc2cc(C(=O)O)[nH]c2c(OC)c1OC"
  Measured quantity: "inhibition"
  Recorded result: 0.5
- Compound: "C[C@H](O)[C@H]1CC[C@H]2[C@@H]3CCC4=CC(=O)CC[C@]4(C)[C@H]3CC[C@]12C"
  Measured quantity: "inhibition"
  Recorded result: -0.6
- Compound: "O=c1cnn([C@@H]2O[C@H](CO)[C@@H](O)[C@H]2O)c(=O)[nH]1"
  Measured quantity: "inhibition"
  Recorded result: -0.1
- Compound: "COc1cccc(-n2c(C)c3c(OC)cccc(=O)c3c2C)c1"
  Measured quantity: "inhibition"
  Recorded result: -8.1
- Compound: "Clc1ccc(COC(Cn2ccnc2)c2ccc(Cl)cc2Cl)c(Cl)c1 (configuration not stated)"
  Measured quantity: "inhibition"
  Recorded result: 0.4
- Compound: "COc1cc(OC)cc(C(=O)N[C@@H](CCSC)c2nc3ccccc3[nH]2)c1"
  Measured quantity: "inhibition"
  Recorded result: 0.7

// inhibition lookup, compound = CC(C)Cc1cc(C(=O)N2CCC(N3CCC(C(=O)N4CCCC4)CC3)CC2)n[nH]1 , result: -0.1

Short answer for OCc1cnc[nH]1 : inhibition was 0.1

Measured inhibition, CC(C)COc1ccc(Cc2cnc(N)nc2N)cc1 : 5

---

Each entry below carries its reported inhibition.
Target: Lethal factor (Bacillus anthracis) (UniProt P15917)
Assay: Lethal factor protease inhibitors, Bacillus anthracis, multiplex microsphere cleavage assay, validation set (AID 588461)
Conditions: flow cytometry, at 10 µM, stronger effect = higher value
Give just the number in %; leave the unit off.

Example cases with answers are listed next.
- Molecule: "C#C[C@]1(O)CC[C@H]2[C@@H]3CCc4cc(O)ccc4[C@H]3CC[C@@]21C"
  inhibition, %: 6.8
- Molecule: "COc1ccccc1OCC(O)COC(N)=O (stereo not drawn)"
  inhibition, %: -6.8
- Molecule: "CC(C)C(CCN1C(=O)CCC1=O)C1CCOC(C)(C)C1 (stereo not drawn)"
  inhibition, %: 0.7
- Molecule: "CCOC(=O)/C=C1\\NC(C)(C)Cc2cc(OC)c(OC)cc21"
  inhibition, %: -2.8
- Molecule: "CCOCCCNCc1cn(-c2ccc(F)cc2F)nc1-c1ccccc1C"
  inhibition, %: -0.3
- Molecule: "COc1ccc(C=NCC2COc3ccccc3O2)cc1OC (stereo not drawn)"
  inhibition, %: -3.2
- Molecule: "Cc1ccc(Nc2ncccc2C(=O)O)cc1C"
  inhibition, %: -6.3
- Molecule: "C=CCn1c(SCC(=O)NC2CCCCC2)nc2ccccc2c1=O"
  inhibition, %: -3.5
- Molecule: "Cc1nc(-c2coc3c(CN(C)C)c(O)ccc3c2=O)cs1"
  inhibition, %: 10.3
- Molecule: "O=C(NCc1ccccc1Cl)NC(=O)c1ccccc1"
  inhibition, %: 6.8

Field inhibition (entry Cc1ncc([N+](=O)[O-])n1CCO ) reads -4.2

Entry COc1ccc(-c2cc(=Nc3ccc(C)cc3)c3ccccc3o2)cc1 — recorded inhibition = 2.9

What the record says about Cc1cccc(CN2CCN(C(c3ccccc3)c3ccc(Cl)cc3)CC2)c1 (stereo not drawn) : inhibition is -9.2
